Biological target: Sphingosine 1-phosphate receptor 3 (Homo sapiens)
Sequence (Q99500 whole entry): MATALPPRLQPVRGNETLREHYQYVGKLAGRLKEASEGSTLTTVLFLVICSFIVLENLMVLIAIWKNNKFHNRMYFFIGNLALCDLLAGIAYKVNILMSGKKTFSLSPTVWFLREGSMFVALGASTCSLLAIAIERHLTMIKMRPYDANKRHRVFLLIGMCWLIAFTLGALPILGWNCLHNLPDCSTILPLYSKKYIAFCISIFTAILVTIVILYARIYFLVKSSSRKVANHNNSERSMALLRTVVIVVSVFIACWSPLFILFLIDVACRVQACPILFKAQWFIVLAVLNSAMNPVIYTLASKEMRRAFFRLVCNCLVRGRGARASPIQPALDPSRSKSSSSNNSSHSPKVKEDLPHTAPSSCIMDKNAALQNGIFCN
Experiment: Agonist activity at human S1P3 receptor expressed in CHO cells coexpressing chimeric Gq/i5 G-protein assessed as Ca2+ release by FLIPR assay
experimental endpoint: EC50

Reference set (5 entries):
> print(dat)
                                        mol  endpoint.value
1  N[C@@H](CCc1ccc(-c2nc3ccc(C4(c5ccccc5)CC4)nc3s2)c(F)c1)C(=O)O        > 2.5 µM
2  O=C(O)CNCCc1ccc(-c2nc3ccc(C4(c5ccccc5)CC4)nc3s2)c(F)c1         1.44 µM
3  O=C(O)CCNc1ccc(-c2nc3ccc(C4(c5ccccc5)CC4)nc3s2)c(F)c1        > 2.5 µM
4  NCCc1ccc(-c2nc3ccc(C4(c5ccccc5)CC4)nc3s2)c(F)c1         > 25 µM
5  N[C@@H](CC(=O)Nc1ccc(-c2nc3ccc(C4(c5ccccc5)CC4)nc3s2)c(F)c1)C(=O)O        > 2.5 µM

IN: What measured EC50 goes with O=C(O)CCCc1ccc(-c2nc3ccc(C4(c5ccccc5)CC4)nc3s2)c(F)c1 ?
OUT: > 25 µM

IN: Check Fc1ccccc1-c1nc2ccc(C3(c4ccccc4)CC3)nc2s1 too.
OUT: > 25 µM

IN: Check CN(CCC(=O)O)Cc1ccc(-c2nc3ccc(C4(c5ccccc5)CC4)nc3s2)c(F)c1 too.
OUT: > 25 µM

IN: Check C[C@](N)(CCc1ccc(-c2nc3ccc(C4(c5ccccc5)CC4)nc3s2)c(F)c1)C(=O)O too.
OUT: > 2.5 µM

IN: Check N[C@@H](CC(=O)O)C(=O)Nc1ccc(-c2nc3ccc(C4(c5ccccc5)CC4)nc3s2)c(F)c1 too.
OUT: 1.13 µM

IN: Check O=C(O)c1ccc(-c2nc3ccc(C4(c5ccccc5)CC4)nc3s2)c(F)c1 too.
OUT: > 25 µM

IN: Check O=C(O)CCC(=O)Nc1ccc(-c2nc3ccc(C4(c5ccccc5)CC4)nc3s2)c(F)c1 too.
OUT: 5.56 µM

IN: Check NCc1ccc(-c2nc3ccc(C4(c5ccccc5)CC4)nc3s2)c(F)c1 too.
OUT: > 2.5 µM

IN: Check O=C(O)CNCc1ccc(-c2nc3ccc(C4(c5ccccc5)CC4)nc3s2)c(F)c1 too.
OUT: 1.56 µM

IN: Check O=C(O)CCCNCc1ccc(-c2nc3ccc(C4(c5ccccc5)CC4)nc3s2)c(F)c1 too.
OUT: > 2.5 µM

IN: Check O=C(O)CCCNc1ccc(-c2nc3ccc(C4(c5ccccc5)CC4)nc3s2)c(F)c1 too.
OUT: 7.12 µM
